Test system: rodent lifetime carcinogenesis bioassay, tumor incidence TD50
assay: carcinogenic potency in animals, long-term in vivo studies, CPDB compilation (AID 1745844)
conditionContext: mouse; strain B6C3F1; females; by gavage; site: multiple organs + spleen; lesion: malignant lymphoma, histiocytic type; dosed 102 weeks; study length 105 weeks
metricName: TD50 (mg/kg/day)
Give the quantity in mg/kg/day, number only.

Request: Could you tell me which TD50 is on file for "ClC(Cl)Br" ?
Response: 132

====

Tested on: rodent lifetime carcinogenesis bioassay, tumor incidence TD50
assay: carcinogenic potency in animals, long-term in vivo studies, CPDB compilation (AID 1745844)
conditionContext: rat; strain Fischer 344; males; in feed; site: subcutaneous tissue; lesion: sarcoma, NOS; dosed 103 weeks; study length 104 weeks
metricName: TD50 (mg/kg/day)
Just the number in mg/kg/day, nothing appended.

Request: Can you share its TD50? I mean this compound: "Nc1ccc(N)c2c1C(=O)c1c(N)ccc(N)c1C2=O"
Response: 1830

====

Test system: rodent lifetime carcinogenesis bioassay, tumor incidence TD50
assay: carcinogenic potency in animals, long-term in vivo studies, CPDB compilation (AID 1745844)
conditionContext: rat; strain Sprague-Dawley; females; inhaled; site: Zymbal's gland; lesion: carcinoma; dosed 25 weeks; study length 127 weeks
metricName: TD50

Request: So what does the record say about TD50 for "C=CCl" ?
Response: 1200 mg/kg/day

====

System: rodent lifetime carcinogenesis bioassay, tumor incidence TD50
assay: carcinogenic potency in animals, long-term in vivo studies, CPDB compilation (AID 1745844)
conditionContext: rat; strain Fischer 344; males; in drinking water; site: liver; lesion: neoplastic nodule; dosed 30 weeks; study length 100 weeks
metricName: TD50 (mg/kg/day)
Give the value in mg/kg/day but do not write mg/kg/day after it.

Request: Can you share its TD50? I mean this molecule: "CN=[N+](C)[O-]"
Response: 28.6

====

Tested on: rodent lifetime carcinogenesis bioassay, tumor incidence TD50
assay: carcinogenic potency in animals, long-term in vivo studies, CPDB compilation (AID 1745844)
conditionContext: mouse; strain B6C3F1; females; by gavage; site: lung; lesion: several types; types named in the paper; dosed 104 weeks; study length 107 weeks
metricName: TD50 (mg/kg/day)
# value in mg/kg/day; strip the unit string

Request: Entry "ClCc1ccccc1" : reported TD50 = ?
Response: 337

====

System: rodent lifetime carcinogenesis bioassay, tumor incidence TD50
assay: carcinogenic potency in animals, long-term in vivo studies, CPDB compilation (AID 1745844)
conditionContext: rat; strain Fischer 344; males; by gavage; site: lip + palate + tongue; lesion: squamous-cell carcinoma + squamous-cell papilloma; dosed 94 weeks; study length 104 weeks
metricName: TD50

Request: I'd like to know its TD50. The compound in question is "CC(C)=CCl"
Response: 163 mg/kg/day

====

Tested on: rodent lifetime carcinogenesis bioassay, tumor incidence TD50
assay: carcinogenic potency in animals, long-term in vivo studies, CPDB compilation (AID 1745844)
conditionContext: rat; strain Long-Evans; females; in feed; site: any site (literature study); lesion: several types; types named in the paper; dosed 78 weeks; study length 104 weeks
Active and inactive are the calls of the source. No rule for the calls is given here.
metricName: TD50

Request: Would you mind telling me what TD50 value was observed for CC(C)NCC(O)c1ccc(NS(C)(=O)=O)cc1 (stereo unspecified) ?
Response: 477 mg/kg/day (inactive)

====

Test system: rodent lifetime carcinogenesis bioassay, tumor incidence TD50
assay: carcinogenic potency in animals, long-term in vivo studies, CPDB compilation (AID 1745844)
conditionContext: mouse; strain Swiss CD-1; males; in drinking water; site: liver; lesion: several types; types named in the paper; dosed 34 weeks; study length 118 weeks
Calls of active or inactive are those of the source. The rule behind the calls is not given here.
metricName: TD50

Request: Which TD50 value is on record for "CNc1ncnc2c1ncn2[C@@H]1O[C@H](CO)[C@@H](O)[C@H]1O" ?
Response: 108 mg/kg/day (inactive)

====

Test system: rodent lifetime carcinogenesis bioassay, tumor incidence TD50
assay: carcinogenic potency in animals, long-term in vivo studies, CPDB compilation (AID 1745844)
conditionContext: rat; strain Fischer 344; females; in drinking water; site: upper gastrointestinal tract; lesion: carcinoma; dosed 30 weeks; study length 133 weeks
metricName: TD50

Request: TD50 for "O=NN1CCCN(N=O)CC1" ?
Response: 0.24 mg/kg/day

====

Tested on: rodent lifetime carcinogenesis bioassay, tumor incidence TD50
assay: carcinogenic potency in animals, long-term in vivo studies, CPDB compilation (AID 1745844)
conditionContext: rat; strain Fischer 344; males; by gavage; site: lung; lesion: several types; types named in the paper; dosed 28 weeks; study length 104 weeks
metricName: TD50

Request: Any idea what TD50 was measured for "CN(N=O)C(N)=O" ?
Response: 0.357 mg/kg/day

====

System: rodent lifetime carcinogenesis bioassay, tumor incidence TD50
assay: carcinogenic potency in animals, long-term in vivo studies, CPDB compilation (AID 1745844)
conditionContext: rat; strain Sprague-Dawley; females; in feed; site: liver; lesion: hepatocellular carcinoma; dosed 104 weeks; study length 104 weeks
Activity calls are given as the source filed them. The rule behind the calls is not given here.
Readings of TD50 for the listed compounds

Guide cases for TD50, answers given:
compound: CCN(CC)C(=O)Nc1ccc(OCC(O)CNC(C)(C)C)c(C(C)=O)c1 (centres undefined)
TD50: 38100 mg/kg/day (inactive)
//
compound: Clc1cccc(-c2cc(Cl)cc(Cl)c2)c1
TD50: 598 mg/kg/day
//
compound: Clc1cccc(-c2ccc(Cl)c(Cl)c2Cl)c1Cl
TD50: 28.6 mg/kg/day

Here's the next entry for you.
Request: Give its TD50 value. Item: "Clc1ccc(-c2ccc(Cl)c(Cl)c2Cl)c(Cl)c1Cl"
Response: 41.4 mg/kg/day

====

Tested on: rodent lifetime carcinogenesis bioassay, tumor incidence TD50
assay: carcinogenic potency in animals, long-term in vivo studies, CPDB compilation (AID 1745844)
conditionContext: mouse; strain Swiss albino; females; in drinking water; site: lung; lesion: adenoma; dosed 102 weeks; study length 102 weeks
metricName: TD50 (mg/kg/day)
Entry rule: numbers only, all in mg/kg/day.

Request: Quick one: TD50 for "NNC(=O)c1cccnc1" ?
Response: 181

====

Tested on: rodent lifetime carcinogenesis bioassay, tumor incidence TD50
assay: carcinogenic potency in animals, long-term in vivo studies, CPDB compilation (AID 1745844)
conditionContext: rat; strain Osborne-Mendel; females; by gavage; site: liver; lesion: hepatocellular adenoma + hepatocellular carcinoma + neoplastic nodule; dosed 78 weeks; study length 112 weeks
metricName: TD50 (mg/kg/day)
Report only the number, with the unit mg/kg/day understood.

Request: What value of TD50 has been recorded for this entry: "ClCC(Cl)Cl"
Response: 771

====

System: rodent lifetime carcinogenesis bioassay, tumor incidence TD50
assay: carcinogenic potency in animals, long-term in vivo studies, CPDB compilation (AID 1745844)
conditionContext: mouse; strain Swiss; females; by gavage; site: lung; lesion: carcinoma; dosed 81 weeks; study length 83 weeks
metricName: TD50 (mg/kg/day)
Report as a plain number; the unit mg/kg/day is understood.

Request: Entry "NNC(=O)c1ccncc1" has what TD50?
Response: 88.6

====

System: rodent lifetime carcinogenesis bioassay, tumor incidence TD50
assay: carcinogenic potency in animals, long-term in vivo studies, CPDB compilation (AID 1745844)
conditionContext: mouse; strain B6C3F1; males; inhaled; site: Zymbal's gland; lesion: adenoma + carcinoma; dosed 13 weeks; study length 104 weeks
metricName: TD50
Be sure to follow the number with its unit.

Request: Recorded TD50 for "C=CC=C" , please?
Response: 223 mg/kg/day

====

Tested on: rodent lifetime carcinogenesis bioassay, tumor incidence TD50
assay: carcinogenic potency in animals, long-term in vivo studies, CPDB compilation (AID 1745844)
conditionContext: rat; strain Fischer 344; males; in feed; site: liver; lesion: hepatocellular carcinoma; dosed 108 weeks; study length 108 weeks
metricName: TD50

Request: Give the reported TD50 for CC(C)(Oc1ccc(C2CCCc3ccccc32)cc1)C(=O)O (stereo unspecified) (system: rodent lifetime carcinogenesis bioassay, tumor incidence TD50).
Response: 22.4 mg/kg/day

====

Test system: rodent lifetime carcinogenesis bioassay, tumor incidence TD50
assay: carcinogenic potency in animals, long-term in vivo studies, CPDB compilation (AID 1745844)
conditionContext: mouse; strain B6C3F1; females; inhaled; site: liver; lesion: hepatocellular adenoma + hepatocellular carcinoma; dosed 102 weeks; study length 104 weeks
metricName: TD50

Request: Recorded TD50 of "ClCCl" , please.
Response: 1430 mg/kg/day

====

# maps each entry to its TD50
Test system: rodent lifetime carcinogenesis bioassay, tumor incidence TD50
assay: carcinogenic potency in animals, long-term in vivo studies, CPDB compilation (AID 1745844)
conditionContext: rat; strain Sprague-Dawley Spartan; females; in feed; site: any site (literature study); lesion: several types; types named in the paper; dosed 104 weeks; study length 104 weeks
Active and inactive are the calls of the source. How the calls were made is not given here.

testSmiles: OCC(CO)(CBr)CBr
testSystem: rodent lifetime carcinogenesis bioassay, tumor incidence TD50
assayValue: 1730 mg/kg/day (inactive)

Field: next compound
Request: Quick check: TD50 of "ClC(Cl)=C(Cl)C(Cl)=C(Cl)Cl" ?
Response: 9.84 mg/kg/day
